Biological target: T1, human CLDN9 (UniProt O95484 1-217)
T1 chain: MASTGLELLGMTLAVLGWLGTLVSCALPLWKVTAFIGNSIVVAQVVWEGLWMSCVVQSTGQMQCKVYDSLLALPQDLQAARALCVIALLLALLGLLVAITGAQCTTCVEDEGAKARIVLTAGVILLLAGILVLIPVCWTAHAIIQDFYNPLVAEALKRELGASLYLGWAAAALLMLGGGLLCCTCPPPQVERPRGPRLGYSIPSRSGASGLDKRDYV
Assay: HEK293E cell binding; avid
observable: EC50 (µg/mL)
Please give a number only; it is taken to be in µg/mL.

Field: example entries. Status: answers known.
{"columns": ["binder", "EC50 (µg/mL)"],
 "data": [
  ["XENP35865 H2_L1.60 (antibody, V domains shown) VH: EVQLVQSGAEVKKPGESLRISCKTSGYTFTEYTMHWVRQMPGKSLEWMGGIDPNNGNTHYNQKFQGHVTISVDKSISTAYLQWSSLKASDTAMYYCARIYYFGRLYFDFWGAGTLVTVSS VL: DIQMTQSPSSLSASVGDRVTITCQASEDIYNRLAWYQQKPGKVPKLLISGATSLETGVPSRFSGSGSGKDYTFTISSLQPEDIATYYCQQLWSSPLTFGGGTKVEIKR", 124],
  ["XENP35090 H1.6_L1 (antibody, V domains shown) VH: QVQLVQSGAEVKKPGASVKVSCKTSGYTFTEYTMHWVRQAPGQSLEWMGGIDPNSGNTHYNQKFQGRVTITVDKSASTAYMELSSLRSEDTAVYYCARIYYFGRLYFDFWGAGTLVTVSS VL: DIQMTQSPSSLSASVGDRVTITCQASEDIYNRLAWYQQKPGKVPKLLISGATSLETGVPSRFSGSGSGKDYTFTISSLQPEDIATYYCQQYWSSPLTFGGGTKVEIKR", 7.06]
]}

Next, consider the following binder.
q: Could you share which EC50 value was measured for XENP34218, humanized C6-30 H1L1 bivalent mAb (antibody, V domains shown) VH: QVQLVQSGAEVKKPGASVKVSCKTSGYTFTEYTMHWVRQAPGQSLEWMGGIDPNNGNTHYNQKFQGRVTITVDKSASTAYMELSSLRSEDTAVYYCARIYYFGRLYFDFWGAGTLVTVSS VL: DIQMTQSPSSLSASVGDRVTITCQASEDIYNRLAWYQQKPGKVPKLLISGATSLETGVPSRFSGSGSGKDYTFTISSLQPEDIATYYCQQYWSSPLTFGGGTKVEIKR ?
a: 11.6
